measurementLabel: Ki

Enquiry: Lab note: need Ki with Carbonic anhydrase 1 (Homo sapiens, UniProt P00915) for entry `C[C@H](CCC(=O)Nc1ccc(S(N)(=O)=O)cc1Cl)[C@H]1CC[C@H]2[C@@H]3[C@H](O)C[C@@H]4C[C@H](O)CC[C@]4(C)[C@H]3CC[C@]12C` , please look it up.
Sequence (P00915 whole entry): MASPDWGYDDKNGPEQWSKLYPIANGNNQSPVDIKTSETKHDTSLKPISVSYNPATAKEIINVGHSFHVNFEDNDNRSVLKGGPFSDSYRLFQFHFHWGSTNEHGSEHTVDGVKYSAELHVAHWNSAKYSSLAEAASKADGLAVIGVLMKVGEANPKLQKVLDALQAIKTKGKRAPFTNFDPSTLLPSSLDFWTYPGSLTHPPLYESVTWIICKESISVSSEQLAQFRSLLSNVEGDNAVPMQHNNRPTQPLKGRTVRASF
Return: 950 nM

Enquiry: Lab note: need Ki with Carbonic anhydrase 1 (Homo sapiens, UniProt P00915) for entry `C[C@H](CCC(=O)Nc1cccc(S(N)(=O)=O)c1)[C@H]1CC[C@H]2[C@@H]3CC[C@@H]4C[C@H](O)CC[C@]4(C)[C@H]3C[C@H](O)[C@]12C` , please look it up.
Return: 12700 nM

Enquiry: Lab note: need Ki with Carbonic anhydrase 1 (Homo sapiens, UniProt P00915) for entry `C[C@H](CCC(=O)OCCc1ccc(S(N)(=O)=O)cc1)[C@H]1CC[C@H]2[C@@H]3[C@H](O)C[C@@H]4C[C@H](O)CC[C@]4(C)[C@H]3CC[C@]12C` , please look it up.
Return: 1100 nM

* * *

Exercise: state measured Ki for each of the compounds provided.
Target: UniProtKB Q95323
Sequence (Q95323 whole entry): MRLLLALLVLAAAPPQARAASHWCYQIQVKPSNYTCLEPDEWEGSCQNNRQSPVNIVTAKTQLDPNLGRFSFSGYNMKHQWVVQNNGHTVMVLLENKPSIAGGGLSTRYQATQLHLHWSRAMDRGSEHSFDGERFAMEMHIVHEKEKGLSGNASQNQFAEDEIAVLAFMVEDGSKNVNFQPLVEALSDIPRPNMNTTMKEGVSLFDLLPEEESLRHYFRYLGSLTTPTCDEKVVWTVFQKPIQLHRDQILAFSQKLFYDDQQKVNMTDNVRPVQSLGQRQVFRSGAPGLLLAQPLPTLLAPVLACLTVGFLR
The reply should contain only the number, in nM.

Enquiry: Name the reported Ki value associated with the compound `C[C@H](CCC(=O)Nc1c(S(N)(=O)=O)cc(S(N)(=O)=O)c(Cl)c1Cl)[C@H]1CC[C@H]2[C@@H]3C(=O)C[C@@H]4CC(=O)CC[C@]4(C)[C@H]3CC(=O)[C@]12C`
Return: 24

Enquiry: Name the reported Ki value associated with the compound `C[C@H](CCC(=O)NNc1ccc(S(N)(=O)=O)cc1)[C@H]1CC[C@H]2[C@@H]3C(=O)C[C@@H]4CC(=O)CC[C@]4(C)[C@H]3CC(=O)[C@]12C`
Return: 550

Enquiry: Name the reported Ki value associated with the compound `C[C@H](CCC(=O)OCCOc1ccc2nc(S(N)(=O)=O)sc2c1)[C@H]1CC[C@H]2[C@@H]3[C@@H](O)C[C@@H]4C[C@H](O)CC[C@]4(C)[C@H]3CC[C@]12C`
Return: 5

Enquiry: Name the reported Ki value associated with the compound `C[C@H](CCC(=O)NCCc1ccc(S(N)(=O)=O)cc1)[C@H]1CC[C@H]2[C@@H]3[C@H](O)C[C@@H]4C[C@H](O)CC[C@]4(C)[C@H]3C[C@H](O)[C@]12C`
Return: 220

Enquiry: Name the reported Ki value associated with the compound `C[C@H](CCC(=O)Nc1ccc2nc(S(N)(=O)=O)sc2c1)[C@H]1CC[C@H]2[C@@H]3[C@H](O)C[C@@H]4C[C@H](O)CC[C@]4(C)[C@H]3C[C@H](O)[C@]12C`
Return: 10

Enquiry: Name the reported Ki value associated with the compound `C[C@H](CCC(=O)NNc1ccc(S(N)(=O)=O)cc1)[C@H]1CC[C@H]2[C@@H]3[C@@H](O)C[C@@H]4C[C@H](O)CC[C@]4(C)[C@H]3CC[C@]12C`
Return: 615

Enquiry: Name the reported Ki value associated with the compound `C[C@H](CCC(=O)NCCC(=O)Nc1nnc(S(N)(=O)=O)s1)[C@H]1CC[C@H]2[C@@H]3[C@H](O)C[C@@H]4C[C@H](O)CC[C@]4(C)[C@H]3C[C@H](O)[C@]12C`
Return: 31

Enquiry: Name the reported Ki value associated with the compound `C[C@H](CCC(=O)NCCC(=O)Nc1nnc(S(N)(=O)=O)s1)[C@H]1CC[C@H]2[C@@H]3CC[C@@H]4C[C@H](O)CC[C@]4(C)[C@H]3CC[C@]12C`
Return: 19

Enquiry: Name the reported Ki value associated with the compound `C[C@H](CCC(=O)Nc1ccc(S(N)(=O)=O)cc1F)[C@H]1CC[C@H]2[C@@H]3CC[C@@H]4C[C@H](O)CC[C@]4(C)[C@H]3CC[C@]12C`
Return: 36

Enquiry: Name the reported Ki value associated with the compound `C[C@H](CCC(=O)Oc1ccc2nc(S(N)(=O)=O)sc2c1)[C@H]1CC[C@H]2[C@@H]3[C@H](O)C[C@@H]4C[C@H](O)CC[C@]4(C)[C@H]3CC[C@]12C`
Return: 12

Enquiry: Name the reported Ki value associated with the compound `C[C@H](CCC(=O)OCCc1ccc(S(N)(=O)=O)cc1)[C@H]1CC[C@H]2[C@@H]3[C@@H](O)C[C@@H]4C[C@H](O)CC[C@]4(C)[C@H]3CC[C@]12C`
Return: 160

* * *

measurementLabel: Ki (nM)
The reply should contain only the number, in nM.

Enquiry: Lab note: need Ki with Carbonic anhydrase 1 (Homo sapiens) for entry `C[C@H](CCC(=O)Nc1ccc(S(N)(=O)=O)cc1Br)[C@H]1CC[C@H]2[C@@H]3C(=O)C[C@@H]4CC(=O)CC[C@]4(C)[C@H]3CC(=O)[C@]12C` , please look it up.
Return: 66

Enquiry: Lab note: need Ki with Carbonic anhydrase 1 (Homo sapiens) for entry `C[C@H](CCC(=O)Nc1ccc2nc(S(N)(=O)=O)sc2c1)[C@H]1CC[C@H]2[C@@H]3C(=O)C[C@@H]4CC(=O)CC[C@]4(C)[C@H]3CC(=O)[C@]12C` , please look it up.
Return: 39

Enquiry: Lab note: need Ki with Carbonic anhydrase 1 (Homo sapiens) for entry `C[C@H](CCC(=O)Nc1ccc2nc(S(N)(=O)=O)sc2c1)[C@H]1CC[C@H]2[C@@H]3[C@H](O)C[C@@H]4C[C@H](O)CC[C@]4(C)[C@H]3C[C@H](O)[C@]12C` , please look it up.
Return: 35

Enquiry: Lab note: need Ki with Carbonic anhydrase 1 (Homo sapiens) for entry `C[C@H](CCC(=O)NCCC(=O)Nc1nnc(S(N)(=O)=O)s1)[C@H]1CC[C@H]2[C@@H]3[C@@H](O)C[C@@H]4C[C@H](O)CC[C@]4(C)[C@H]3CC[C@]12C` , please look it up.
Return: 98

Enquiry: Lab note: need Ki with Carbonic anhydrase 1 (Homo sapiens) for entry `C[C@H](CCC(=O)NCCc1ccc(S(N)(=O)=O)cc1)[C@H]1CC[C@H]2[C@@H]3CC[C@@H]4C[C@H](O)CC[C@]4(C)[C@H]3CC[C@]12C` , please look it up.
Return: 650

* * *

measurementLabel: pKi
# log scale: pKi equals minus log10 of the concentration in mol/L

Enquiry: Lab note: need pKi with UniProt:P00918 for entry `C[C@H](CCC(=O)/N=c1\sc(S(N)(=O)=O)nn1C)[C@H]1CC[C@H]2[C@@H]3[C@H](O)C[C@@H]4C[C@H](O)CC[C@]4(C)[C@H]3CC[C@]12C` , please look it up.
Return: 7.89

Enquiry: Lab note: need pKi with UniProt:P00918 for entry `C[C@H](CCC(=O)Nc1nnc(S(N)(=O)=O)s1)[C@H]1CC[C@H]2[C@@H]3[C@H](O)C[C@@H]4C[C@H](O)CC[C@]4(C)[C@H]3C[C@H](O)[C@]12C` , please look it up.
Return: 7.30

Enquiry: Lab note: need pKi with UniProt:P00918 for entry `C[C@H](CCC(=O)NCCc1ccc(S(N)(=O)=O)cc1)[C@H]1CC[C@H]2[C@@H]3[C@H](O)C[C@@H]4C[C@H](O)CC[C@]4(C)[C@H]3CC[C@]12C` , please look it up.
Return: 7.07

Enquiry: Lab note: need pKi with UniProt:P00918 for entry `C[C@H](CCC(=O)Nc1cc(Cl)c(S(N)(=O)=O)cc1S(N)(=O)=O)[C@H]1CC[C@H]2[C@@H]3CC[C@@H]4C[C@H](O)CC[C@]4(C)[C@H]3C[C@H](O)[C@]12C` , please look it up.
Return: 7.26

Enquiry: Lab note: need pKi with UniProt:P00918 for entry `C[C@H](CCC(=O)Nc1ccccc1S(N)(=O)=O)[C@H]1CC[C@H]2[C@@H]3CC[C@@H]4C[C@H](O)CC[C@]4(C)[C@H]3C[C@H](O)[C@]12C` , please look it up.
Return: 6.55

* * *

Target: Carbonic anhydrase 4 (Bos taurus)
Sequence (Q95323 whole entry): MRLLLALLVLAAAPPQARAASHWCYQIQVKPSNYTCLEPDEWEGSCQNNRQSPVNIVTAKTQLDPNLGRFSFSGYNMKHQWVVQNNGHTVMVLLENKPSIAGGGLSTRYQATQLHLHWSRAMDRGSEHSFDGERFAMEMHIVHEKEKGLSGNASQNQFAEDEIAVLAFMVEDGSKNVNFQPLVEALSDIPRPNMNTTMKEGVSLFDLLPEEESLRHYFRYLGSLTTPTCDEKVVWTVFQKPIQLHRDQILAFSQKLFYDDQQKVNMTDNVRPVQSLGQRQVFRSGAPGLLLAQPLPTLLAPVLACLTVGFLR
measurementLabel: pKi
# log scale: pKi equals minus log10 of the concentration in mol/L

Enquiry: Lab note: need pKi with Carbonic anhydrase 4 (Bos taurus) for entry `C[C@H](CCC(=O)Nc1nnc(S(N)(=O)=O)s1)[C@H]1CC[C@H]2[C@@H]3C(=O)C[C@@H]4CC(=O)CC[C@]4(C)[C@H]3CC(=O)[C@]12C` , please look it up.
Return: 8.05

Enquiry: Lab note: need pKi with Carbonic anhydrase 4 (Bos taurus) for entry `C[C@H](CCC(=O)NCCc1ccc(S(N)(=O)=O)cc1)[C@H]1CC[C@H]2[C@@H]3C(=O)C[C@@H]4CC(=O)CC[C@]4(C)[C@H]3CC(=O)[C@]12C` , please look it up.
Return: 7.54

Enquiry: Lab note: need pKi with Carbonic anhydrase 4 (Bos taurus) for entry `C[C@H](CCC(=O)Nc1ccc(S(N)(=O)=O)cc1I)[C@H]1CC[C@H]2[C@@H]3[C@H](O)C[C@@H]4C[C@H](O)CC[C@]4(C)[C@H]3C[C@H](O)[C@]12C` , please look it up.
Return: 6.98

Enquiry: Lab note: need pKi with Carbonic anhydrase 4 (Bos taurus) for entry `C[C@H](CCC(=O)NCCc1ccc(S(N)(=O)=O)cc1)[C@H]1CC[C@H]2[C@@H]3[C@@H](O)C[C@@H]4C[C@H](O)CC[C@]4(C)[C@H]3CC[C@]12C` , please look it up.
Return: 7.47

Enquiry: Lab note: need pKi with Carbonic anhydrase 4 (Bos taurus) for entry `C[C@H](CCC(=O)Nc1nnc(S(N)(=O)=O)s1)[C@H]1CC[C@H]2[C@@H]3[C@H](O)C[C@@H]4C[C@H](O)CC[C@]4(C)[C@H]3C[C@H](O)[C@]12C` , please look it up.
Return: 6.69

Enquiry: Lab note: need pKi with Carbonic anhydrase 4 (Bos taurus) for entry `C[C@H](CCC(=O)Nc1cccc(S(N)(=O)=O)c1)[C@H]1CC[C@H]2[C@@H]3[C@H](O)C[C@@H]4C[C@H](O)CC[C@]4(C)[C@H]3CC[C@]12C` , please look it up.
Return: 5.90

Enquiry: Lab note: need pKi with Carbonic anhydrase 4 (Bos taurus) for entry `C[C@H](CCC(=O)Nc1c(S(N)(=O)=O)cc(S(N)(=O)=O)c(Cl)c1Cl)[C@H]1CC[C@H]2[C@@H]3CC[C@@H]4C[C@H](O)CC[C@]4(C)[C@H]3CC[C@]12C` , please look it up.
Return: 7.06

Enquiry: Lab note: need pKi with Carbonic anhydrase 4 (Bos taurus) for entry `C[C@H](CCC(=O)Nc1ccccc1S(N)(=O)=O)[C@H]1CC[C@H]2[C@@H]3CC[C@@H]4C[C@H](O)CC[C@]4(C)[C@H]3C[C@H](O)[C@]12C` , please look it up.
Return: 6.01

Enquiry: Lab note: need pKi with Carbonic anhydrase 4 (Bos taurus) for entry `C[C@H](CCC(=O)Nc1ccc(S(N)(=O)=O)cc1Cl)[C@H]1CC[C@H]2[C@@H]3C(=O)C[C@@H]4CC(=O)CC[C@]4(C)[C@H]3CC(=O)[C@]12C` , please look it up.
Return: 7.52

Enquiry: Lab note: need pKi with Carbonic anhydrase 4 (Bos taurus) for entry `C[C@H](CCC(=O)/N=c1\sc(S(N)(=O)=O)nn1C)[C@H]1CC[C@H]2[C@@H]3C(=O)C[C@@H]4CC(=O)CC[C@]4(C)[C@H]3CC(=O)[C@]12C` , please look it up.
Return: 8.10
